Target: UniProt P21917
Sequence (P21917 1-419): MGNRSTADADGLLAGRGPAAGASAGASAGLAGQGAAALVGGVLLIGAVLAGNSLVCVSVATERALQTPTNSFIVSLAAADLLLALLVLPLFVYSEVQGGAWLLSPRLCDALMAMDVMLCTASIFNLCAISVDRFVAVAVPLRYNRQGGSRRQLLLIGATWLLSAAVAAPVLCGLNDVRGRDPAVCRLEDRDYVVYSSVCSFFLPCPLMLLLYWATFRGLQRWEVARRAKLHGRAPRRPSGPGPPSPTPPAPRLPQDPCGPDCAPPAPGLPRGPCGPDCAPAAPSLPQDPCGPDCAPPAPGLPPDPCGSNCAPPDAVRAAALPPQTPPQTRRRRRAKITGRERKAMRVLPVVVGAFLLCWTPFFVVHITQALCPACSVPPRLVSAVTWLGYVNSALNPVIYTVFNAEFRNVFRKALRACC
Assay: biochemical
Set-up: species or system HEK293; PDSP competitive radioligand binding, membranes of transfected HEK293 cells, filtration, Ki by Cheng-Prusoff
readoutKind: Ki (µM)
Quick reminder: number only, in µM, skip the unit.

Q: I have this compound here, CCCCCCOc1nsnc1C1=CCCN(C)C1 [Xanomeline] , and I need its recorded Ki.
Result: 2
